Listing of recorded metabolised at 0.5 h by entry.
# Tested on: angiotensin-converting enzyme (ACE)
# Construct: purified angiotensin-converting enzyme (ACE) from rabbit lungs; purchased Sigma, St-Louis, Mo; host or cells: purified from rabbit lungs
# protocol-summary: Metabolic degradation by purified angiotensin-converting enzyme, HPLC analysis
# Format: in vitro ADME, rabbit
# condition-summary: rabbit, isolated enzyme ace, pH 7.5
Non-standard residues stand in square brackets, D forms with d. Residues, ends and D or L forms follow the SMILES beside them. Oic = O=C(O)[C@@H]1C[C@@H]2CCCC[C@@H]2N1; Hyp = O=C(O)[C@@H]1C[C@@H](O)CN1; Tic = O=C(O)[C@@H]1Cc2ccccc2CN1; dTic = O=C(O)[C@H]1Cc2ccccc2CN1; 2Thi = N[C@@H](Cc1cccs1)C(=O)O

INSERT INTO measurements (molecule, readout_value) VALUES
  ('N=C(N)NCCC[C@H](N)C(=O)N1CCC[C@H]1C(=O)N1C[C@H](O)C[C@H]1C(=O)NCC(=O)N[C@@H](Cc1cccs1)C(=O)N[C@@H](CO)C(=O)N1Cc2ccccc2C[C@@H]1C(=O)N1[C@H](C(=O)O)C[C@@H]2CCCC[C@@H]21 [Compound 32, (Hyp^3, Thi^5, D-Tic^7, Oic^8)desArg^9BK, reference compound] (H-RP[Hyp]G[2Thi]S[dTic][Oic]-OH; N-terminus and C-terminus assumed)', '0%');

Now, please, on to the next molecule.
stdin: Entry CC[C@H](C)[C@H](NC(=O)[C@@H]1Cc2ccccc2CN1C(=O)[C@H](CO)NC(=O)[C@H](Cc1ccccc1)NC(=O)CNC(=O)[C@@H]1CCCN1C(=O)[C@@H]1CCCN1C(=O)[C@H](CCCNC(=N)N)NC(=O)[C@H](N)CCCNC(=N)N)C(=O)O [Compound 14, D-Arg(L-Tic^7, Ile^8)desArg^9BK] (H-[dR]RPPGFS[Tic]I-OH; N-terminus and C-terminus assumed) has what metabolised at 0.5 h?
stdout: 77%

The values you see were collected from patent US7041785B1.
